- target-desc: T1, 13 AA stub (a.a. 291-303 of SEQ ID NO: 247) (human)
- T1 peptide: YLVLDLSMQEALS
- assay-overview: SPR, mAb captured, peptide injected
Kd for assorted binders
Value expressed in nM; do not type the unit.

MSLNB591 (antibody, V domains shown, mAb; also called MSNB591) VH: QVQLQQSGPGLVKPSQTLSLTCGISGDSVSSSSVAWNWIRQSPSRGLEWLGRTYYRSKWYNDYAISVRSRVTINPDTSKNQFSLQLNSVTPEDTAVYYCSRGVVGALDYWGQGTLVTVSS VL: DIVMTQSPLSLTVTPGEPASISCRSSQSLLFTNGYNSLDWYLQKPGQSPQFLIYLVSNRASGVPDRFSGSGSGTDFTLKISRVEAEDVGVYYCMQALRTPYTFGQGTKVDIK    1.08
MSLNB570 (antibody, V domains shown, mAb; also called MSNB570) VH: QVQLQQSGPGLVKPSQTLSLTCAISGDSVSSTSVAWNWIRQSPSGGLEWLGRTYYRSKWYNDYALSVKSRMTINPDTASNQFSLQLNSVTPEDTAVYYCSRGIVGALDYWGQGTLVTVSS VL: DIVMTQTPLSLPVTPGGPASISCRSSQSLMYSNGYNHLDWYLQKPGQSPQFLIHLGSNRVSGVPDRFSGSGSGTDFTLKISRVEAEDVGVYYCMQALRTPYTFGQGTKVDIK    4.37

For the binder MSLNB568 (antibody, V domains shown, mAb; also called MSLNB568.001; MSNB568) VH: QVQLQQSGPGLVKPSQTLSLTCGISGDSVSSSSVAWNWIRQSPSRGLEWLGRTYYRSKWYNDYAISVRSRVTINPDTSKNQFSLQLNSVTPEDTAVYYCSRGVVGALDYWGQGTLVTVSS VL: DIVMTQSPLSLTVTPGEPASISCRSSQSLLFTNGYNSLDWYLQKPGQSPQFLIYLVSNRASGVPDRFSGSGSGTDFTLKISRVEAEDVGVYYCMQALRTPYTFGQGTKVEIK , give its reported Kd.
2.64
